# METHOD_DESCRIPTION: Mouse PK study
# Format: in vivo
# TEST_SETTINGS: mouse, plasma; PO 10 mg/kg, male CD1 mice
OBSERVATION_TYPE: Tmax (h)

COMPOUND | DISPLAY_UNIT | MEASURED_NUMBER
O=C1CCN(c2ccc(N3CCC4(CC3)CC(N3CCN(C56CC(Nc7ncc8c(n7)-c7ccc(Cl)cc7C(c7c(F)cccc7F)=NC8)(C5)C6)C(=O)C3)CO4)nc2)C(=O)N1 (centres unmarked) | h | 3.33
O=C1CCN(c2ccc(N3CCO[C@H](C(=O)N4CCN(c5ccc(Nc6ncc7c(n6)-c6ccc(Cl)cc6C(c6c(F)cccc6F)=NC7)cc5)CC4)C3)nc2)C(=O)N1 | h | 2

====

# MEASURED_TARGET: AURKA (Homo sapiens, UniProt O14965)
# Construct: endogenous in cells; host or cells: Jurkat cells
# Sequence (O14965 whole entry): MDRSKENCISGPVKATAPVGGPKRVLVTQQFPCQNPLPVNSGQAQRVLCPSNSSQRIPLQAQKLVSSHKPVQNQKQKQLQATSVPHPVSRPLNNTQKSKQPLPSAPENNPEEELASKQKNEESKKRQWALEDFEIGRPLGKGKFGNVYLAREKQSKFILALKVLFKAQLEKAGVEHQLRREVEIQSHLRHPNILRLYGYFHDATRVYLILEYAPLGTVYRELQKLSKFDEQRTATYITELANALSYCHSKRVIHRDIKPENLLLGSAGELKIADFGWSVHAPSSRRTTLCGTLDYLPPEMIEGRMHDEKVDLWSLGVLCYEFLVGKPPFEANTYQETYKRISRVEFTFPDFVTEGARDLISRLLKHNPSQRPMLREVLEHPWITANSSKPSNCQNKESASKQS
# Type: cell-based
# TEST_SETTINGS: 1 µM compound, Jurkat cells, 24 h, Table 2
OBSERVATION_TYPE: Percentage of AURKA Degradation Induced by 1 µM Compound in Jurkat Cells

SMILES_CODE | RESULT
O=C1CCN(c2ccc(N3CC(CN4CCN(C(=O)C56CC(Nc7ncc8c(n7)-c7ccc(Cl)cc7C(c7c(F)cccc7F)=NC8)(C5)C6)CC4)C3)nc2)C(=O)N1 | +++ (Degradation > 70%)
O=C1CCN(c2ccc(N3CC(N4CCN(Cc5ccc(Nc6ncc7c(n6)-c6ccc(Cl)cc6C(c6c(F)cccc6F)=NC7)cc5)CC4)C3)nc2)C(=O)N1 | +++ (Degradation > 70%)

====

# MEASURED_TARGET: AURKA (Homo sapiens)
# Construct: endogenous in cells; host or cells: Jurkat cells
# Type: cell-based
# TEST_SETTINGS: 100 nM compound, Jurkat cells, 24 h, Table 2
OBSERVATION_TYPE: Percentage of AURKA Degradation Induced by 100 nM Compound in Jurkat Cells

MOLECULE | RESULT
O=C1CCN(c2ccc(N3CCN(CC4(F)CN(c5ccc(Nc6ncc7c(n6)-c6ccc(Cl)cc6C(c6c(F)cccc6F)=NC7)cc5)C4)CC3)nc2)C(=O)N1 | +++ (Degradation > 70%)
O=C1CCN(c2ccc(N3CC4COCC(C3)N4CC3CN(c4ccc(Nc5ncc6c(n5)-c5ccc(Cl)cc5C(c5c(F)cccc5F)=NC6)cc4)C3)nc2)C(=O)N1 | +++ (Degradation > 70%)
Cn1nc(N2CCC(=O)NC2=O)c2cccc(N3CCC4(CC3)CC(N3CCN(c5ccc(Nc6ncc7c(n6)-c6ccc(Cl)cc6C(c6c(F)cccc6F)=NC7)cc5)CC3)CO4)c21 (stereo not shown) | +++ (Degradation > 70%)
CN1CCN(CC2CN(c3cccc(N4CCC(=O)NC4=O)c3)C2)Cc2cc(Nc3ncc4c(n3)-c3ccc(Cl)cc3C(c3c(F)cccc3F)=NC4)ccc21 | +++ (Degradation > 70%)
O=C1CCN(c2cnc(N3CCC(N4CCN(c5ccc(Nc6ncc7c(n6)-c6ccc(Cl)cc6C(c6c(F)cccc6F)=NC7)cc5)C(=O)C4)CC3)s2)C(=O)N1 | +++ (Degradation > 70%)
O=C1CCN(c2ccc([C@H]3C[C@H](N4CC(NC(=O)c5ccc(Nc6ncc7c(n6)-c6ccc(Cl)cc6C(c6c(F)cccc6F)=NC7)cc5)C4)C3)nc2)C(=O)N1 | +++ (Degradation > 70%)
